system: Saccharomyces eubayanus_SOA1; test: maximal growth rate with compound as sole sulfur source (OD600 per h); higher = better growth / uptake of the sulfur source; settings: sulfur source concentration 200 µM; S. cerevisiae S288C/BY sul1Δ sul2Δ soa1Δ with transporter ortholog inserted at SOA1 locus; sulfur-free B medium, 4% glucose, pH 6.5, sole sulfur source
Structures can show the parent of a compound that is named as a salt.
Returns YES if the recorded maximal growth rate is greater than or equal to 0.07, and NO otherwise.

Use the examples below as a reference point.
• O=S(O)O = YES
• O=C(O)CS(=O)(=O)O = NO
• CSCC[C@H](N)C(=O)O = YES
• NCCS(=O)(=O)O = NO
• C[N+](C)(C)CCOS(=O)(=O)[O-] [Choline sulfate] = NO
• O=S(=O)(O)CO [Hydroxymethane sulfonate] = YES
• O=S(=O)(O)CCO [Isethionate] = NO
• CCCCS(=O)(=O)O [Butanesulfonate] = YES

[Q] Answer whether maximal growth rate of O=S(=O)(O)O [sulfate] is greater than or equal to 0.07.
[A] NO

[Q] Answer whether maximal growth rate of `N[C@@H](CS(=O)(=O)O)C(=O)O` is greater than or equal to 0.07.
[A] NO

###

Some compounds, each annotated with its measured maximal growth rate.
system: Metarhizium robertsii_XP_007822519; assay: maximal growth rate with compound as sole sulfur source (OD600 per h); higher = better growth / uptake of the sulfur source; conditions: sulfur source concentration 200 µM; S. cerevisiae S288C/BY sul1Δ sul2Δ soa1Δ with transporter ortholog inserted at SOA1 locus; sulfur-free B medium, 4% glucose, pH 6.5, sole sulfur source
Where a name gives a salt, the structure may show the parent alone.
No unit in the answer, only the number.

* O=S(=O)(O)CCO [Isethionate] | 0.0519

[Q] Identify measured maximal growth rate corresponding to N[C@@H](CS(=O)(=O)O)C(=O)O [L-cysteic acid]
[A] 0.00861

[Q] Identify measured maximal growth rate corresponding to O=S(=O)(O)CO [Hydroxymethane sulfonate]
[A] 0.0756

[Q] Identify measured maximal growth rate corresponding to CCCS(=O)(=O)O [Propanesulfonate]
[A] 0.0162

[Q] Identify measured maximal growth rate corresponding to O=C(O)CS(=O)(=O)O [Sulfoacetic acid]
[A] 0.00308

[Q] Identify measured maximal growth rate corresponding to CCS(=O)(=O)O [Ethanesulfonate]
[A] 0.0594

[Q] Identify measured maximal growth rate corresponding to O=S(=O)(O)O [sulfate]
[A] 0.00347

[Q] Identify measured maximal growth rate corresponding to O=S(O)O [sulfite]
[A] 0.0114

[Q] Identify measured maximal growth rate corresponding to C[N+](C)(C)CCOS(=O)(=O)[O-] [Choline sulfate]
[A] 0.00309

###

tested on: Ogataea parapolymorpha_XP_013932458; test: maximal culture density with compound as sole sulfur source (OD600); higher = better growth; conditions: sulfur source concentration 200 µM; S. cerevisiae S288C/BY sul1Δ sul2Δ soa1Δ with transporter ortholog inserted at SOA1 locus; sulfur-free B medium, 4% glucose, pH 6.5, sole sulfur source
Some compounds, each annotated with its measured maximal culture density.
No unit in the answer, only the number.

• O=C(O)CS(=O)(=O)O [Sulfoacetic acid] = 0.251

Next:
[Q] Identify measured maximal culture density corresponding to O=S(=O)(O)O [sulfate]
[A] 0.281

###

system: Ogataea parapolymorpha_XP_013935289; experiment: maximal growth rate with compound as sole sulfur source (OD600 per h); higher = better growth / uptake of the sulfur source; conditions: sulfur source concentration 200 µM; S. cerevisiae S288C/BY sul1Δ sul2Δ soa1Δ with transporter ortholog inserted at SOA1 locus; sulfur-free B medium, 4% glucose, pH 6.5, sole sulfur source
measured_metric: maximal growth rate
No unit in the answer, only the number.

# example entries with known answers
* O=C(O)CS(=O)(=O)O | 0.0296
* CCCCS(=O)(=O)O [Butanesulfonate] | 0.087
* O=S(O)O | 0.0989
* CCCS(=O)(=O)O [Propanesulfonate] | 0.0825
* CSCC[C@H](N)C(=O)O | 0.13

[Q] Identify measured maximal growth rate corresponding to O=S(=O)(O)CO [Hydroxymethane sulfonate]
[A] 0.114

[Q] Identify measured maximal growth rate corresponding to `NCCS(=O)(=O)O`
[A] 0.0523

###

system: Aspergillus nidulans_CBF80346; test: maximal culture density with compound as sole sulfur source (OD600); higher = better growth; settings: sulfur source concentration 200 µM; S. cerevisiae S288C/BY sul1Δ sul2Δ soa1Δ with transporter ortholog inserted at SOA1 locus; sulfur-free B medium, 4% glucose, pH 6.5, sole sulfur source
Where a name gives a salt, the structure may show the parent alone.
measured_metric: maximal culture density

- CCCCS(=O)(=O)O [Butanesulfonate]: 0.26
- O=S(=O)(O)CCO [Isethionate]: 0.213
- O=S(=O)(O)O [sulfate]: 0.243

[Q] Identify measured maximal culture density corresponding to `NCCS(=O)(=O)O`
[A] 0.217

[Q] Identify measured maximal culture density corresponding to CCCS(=O)(=O)O [Propanesulfonate]
[A] 0.212

[Q] Identify measured maximal culture density corresponding to `O=C(O)CS(=O)(=O)O`
[A] 0.223

[Q] Identify measured maximal culture density corresponding to CCS(=O)(=O)O [Ethanesulfonate]
[A] 0.22

[Q] Identify measured maximal culture density corresponding to C[N+](C)(C)CCOS(=O)(=O)[O-] [Choline sulfate]
[A] 0.245

###

tested on: Aspergillus nidulans (IAM 2006)_astA; experiment: maximal culture density with compound as sole sulfur source (OD600); higher = better growth; conditions: sulfur source concentration 200 µM; S. cerevisiae S288C/BY sul1Δ sul2Δ soa1Δ with transporter ortholog inserted at SOA1 locus; sulfur-free B medium, 4% glucose, pH 6.5, sole sulfur source
Returns rule met if the recorded maximal culture density is greater than or equal to 0.5, and rule not met otherwise.

Use the examples below as a reference point.
* O=C(O)CS(=O)(=O)O | rule met
* NCCS(=O)(=O)O | rule met
* CCS(=O)(=O)O [Ethanesulfonate] | rule not met
* O=S(=O)(O)O [sulfate] | rule met
* CSCC[C@H](N)C(=O)O | rule met

Could you now look at the following compound, please?
[Q] Answer whether maximal culture density of `N[C@@H](CS(=O)(=O)O)C(=O)O` is greater than or equal to 0.5.
[A] rule met

###

test system: Ogataea parapolymorpha_XP_013932458; assay: maximal culture density with compound as sole sulfur source (OD600); higher = better growth; settings: sulfur source concentration 200 µM; S. cerevisiae S288C/BY sul1Δ sul2Δ soa1Δ with transporter ortholog inserted at SOA1 locus; sulfur-free B medium, 4% glucose, pH 6.5, sole sulfur source
Where a name gives a salt, the structure may show the parent alone.
Returns 1 if the recorded maximal culture density is greater than or equal to 0.3, and 0 otherwise.

Use the examples below as a reference point.
* O=S(O)O [sulfite] | 0
* C[N+](C)(C)CCOS(=O)(=O)[O-] [Choline sulfate] | 0
* N[C@@H](CS(=O)(=O)O)C(=O)O [L-cysteic acid] | 1
* CSCC[C@H](N)C(=O)O [Methionine] | 1

Could you now look at the following compound, please?
[Q] Answer whether maximal culture density of CCS(=O)(=O)O [Ethanesulfonate] is greater than or equal to 0.3.
[A] 0

###

Some molecules, each annotated with its measured maximal growth rate.
tested on: Aspergillus nidulans_XP_660670; assay: maximal growth rate with compound as sole sulfur source (OD600 per h); higher = better growth / uptake of the sulfur source; conditions: sulfur source concentration 200 µM; S. cerevisiae S288C/BY sul1Δ sul2Δ soa1Δ with transporter ortholog inserted at SOA1 locus; sulfur-free B medium, 4% glucose, pH 6.5, sole sulfur source
Structures can show the parent of a compound that is named as a salt.
No unit in the answer, only the number.

# example entries with known answers
* O=S(O)O | 0.00402
* CSCC[C@H](N)C(=O)O | 0.139
* CCS(=O)(=O)O [Ethanesulfonate] | 0.0037

[Q] Identify measured maximal growth rate corresponding to O=S(=O)(O)CCO [Isethionate]
[A] 0.00369

[Q] Identify measured maximal growth rate corresponding to `NCCS(=O)(=O)O`
[A] 0.00383

[Q] Identify measured maximal growth rate corresponding to C[N+](C)(C)CCOS(=O)(=O)[O-] [Choline sulfate]
[A] 0.00346

###

tested on: Saccharomyces uvarum_SOA2; assay: maximal culture density with compound as sole sulfur source (OD600); higher = better growth; settings: sulfur source concentration 200 µM; S. cerevisiae S288C/BY sul1Δ sul2Δ soa1Δ with transporter ortholog inserted at SOA1 locus; sulfur-free B medium, 4% glucose, pH 6.5, sole sulfur source
measured_metric: maximal culture density
No unit in the answer, only the number.

* O=S(=O)(O)CCO [Isethionate] | 1.71
* O=S(O)O | 1.44
* NCCS(=O)(=O)O | 0.828

[Q] Identify measured maximal culture density corresponding to `CSCC[C@H](N)C(=O)O`
[A] 1.68

[Q] Identify measured maximal culture density corresponding to CCS(=O)(=O)O [Ethanesulfonate]
[A] 1.76

[Q] Identify measured maximal culture density corresponding to `N[C@@H](CS(=O)(=O)O)C(=O)O`
[A] 0.234

[Q] Identify measured maximal culture density corresponding to O=S(=O)(O)O [sulfate]
[A] 0.199
